meta.source: ChEMBL document CHEMBL3400013

Activity reference
Test system: CCRF-CEM
Assay: Induction of apoptosis in human CCRF-CEM cells assessed as inhibition of DNA synthesis at IC50 after 24 hrs by propidium iodide/BrdU staining by flow cytometry
Assay type: functional
Parameters: scale not given: the % may be the effect or the level left
Please respond with the number in % and leave the unit unwritten.

COC(=O)c1ccc(O)c(/C=N/NC(=O)c2ccc3c4c(ccc3c2)N2Cc3c(ccc5cc(C(=O)N/N=C/c6cc(C(=O)OC)ccc6O)ccc35)N(C4)C2)c1 : 46.43
Cc1ccc(O)c(/C=N/NC(=O)c2ccc3c4c(ccc3c2)N2Cc3c(ccc5cc(C(=O)N/N=C/c6cc(C)ccc6O)ccc35)N(C4)C2)c1 : 38.67
O=C(N/N=C/c1cc(O)ccc1O)c1ccc2c3c(ccc2c1)N1Cc2c(ccc4cc(C(=O)N/N=C/c5cc(O)ccc5O)ccc24)N(C3)C1 : 50.15
O=C(N/N=C/c1cc(F)ccc1O)c1ccc2c3c(ccc2c1)N1Cc2c(ccc4cc(C(=O)N/N=C/c5cc(F)ccc5O)ccc24)N(C3)C1 : 13.69
O=C(NN=C(c1ccccn1)c1ccccn1)c1ccc2c3c(ccc2c1)N1Cc2c(ccc4cc(C(=O)NN=C(c5ccccn5)c5ccccn5)ccc24)N(C3)C1 : 57.31

Prompt line: # lookup: Activity of COc1ccc(O)c(/C=N/NC(=O)c2ccc3c4c(ccc3c2)N2Cc3c(ccc5cc(C(=O)N/N=C/c6cc(OC)ccc6O)ccc35)N(C4)C2)c1
Response line: 50.98

Prompt line: # lookup: Activity of O=C(N/N=C/c1nccc2ccccc12)c1ccc2c3c(ccc2c1)N1Cc2c(ccc4cc(C(=O)N/N=C/c5nccc6ccccc56)ccc24)N(C3)C1
Response line: 52.93

Prompt line: # lookup: Activity of O=C(N/N=C/c1ccccc1O)c1ccc2c3c(ccc2c1)N1Cc2c(ccc4cc(C(=O)N/N=C/c5ccccc5O)ccc24)N(C3)C1
Response line: 50.71
